Numbers sourced from the supplement of paper PMC10266784.

B1: library; numbered along this chain (parent)
chain: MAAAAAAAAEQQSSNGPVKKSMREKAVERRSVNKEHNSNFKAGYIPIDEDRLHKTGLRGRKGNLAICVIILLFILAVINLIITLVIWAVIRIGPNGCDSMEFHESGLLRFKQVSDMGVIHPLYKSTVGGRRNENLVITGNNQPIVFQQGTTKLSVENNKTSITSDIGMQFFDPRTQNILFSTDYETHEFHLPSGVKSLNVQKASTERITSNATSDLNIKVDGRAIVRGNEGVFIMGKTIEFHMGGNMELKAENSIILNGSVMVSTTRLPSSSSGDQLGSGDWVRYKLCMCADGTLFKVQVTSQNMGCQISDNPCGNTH

- Variants of: B1
- Measurement Protocol: SGCB cell-surface expression functional score (HA stain, bin4 vs bin1, normalised to synonymous) (log10 ratio); higher = more cell-surface SGCB (functional)
Mark no (0) for SGCB cell-surface expression functional score (log10) values under 0.1, and yes (1) for everything at or above.

A selection of reference data follows.
# Variant Code, Category
measured = [
    ("L72R", "no (0)"),
    ("F233T", "yes (1)"),
    ("R207M", "yes (1)"),
]

Input line: # check: SGCB cell-surface expression functional score (log10) of S264N is greater than or equal to 0.1
Output line: no (0)

Input line: // inclusive: SGCB cell-surface expression functional score (log10) at least 0.1? input: N253Q
Output line: yes (1)

Input line: API: above_or_equal(metric=SGCB cell-surface expression functional score (log10), cutoff=0.1) for item K202V
Output line: no (0)
